test: Cytotoxicity against Chlorocebus aethiops (African green monkey) Vero cells assessed as alteration in cell morphology by microscopy; assay type: cell-based; settings: chlorocebus sabaeus
Listed below: MCC values for each entry.

Request: Recorded MCC for "O=C(N/N=C/c1cccc([N+](=O)[O-])c1)c1cccnc1" , please?
Result: ≥ 100 µg/mL

Next:
Request: Given "COc1ccc(/C=N/NC(=O)c2cccnc2)cc1" , state its recorded MCC.
Result: > 100 µg/mL

Request: Name the reported MCC value associated with the compound O=C(N/N=C/c1ccccc1)c1cccnc1 [NICOTINIC ACID BENZYLIDENE-HYDRAZIDE]
Result: > 100 µg/mL

Request: GET /values?readout=MCC&item= "O=C(N/N=C/c1cccc(Cl)c1)c1cccnc1"
Result: > 100 µg/mL

Request: Would you kindly share the measured MCC for "O=C(N/N=C/c1cccc(O)c1)c1cccnc1" ?
Result: > 100 µg/mL
